Ref: patent US7476691B2

Tested on: prepubescent female rats
Test: Residual estrogenic activity in vivo (uterotrophic assay)
Settings: prepubescent female rats, oral, 1 mg/rat/day for 3 days
Measurement Name: % stimulation of uterus weight in comparison with controls (%)
Note: unit % is implicit; provide only the numeric part.

Dear colleague, please send me the reported % stimulation of uterus weight in comparison with controls for CC1CCC(C2=Cc3ccc(OS(N)(=O)=O)cc3S2(=O)=O)CC1 (stereo not drawn) when you can.
3

Dear colleague, please send me the reported % stimulation of uterus weight in comparison with controls for NS(=O)(=O)Oc1ccc2c3c(c(=O)oc2c1)CCCCC3 [6,6,7-COUMATE, reference compound] when you can.
3

---

Biological target: estrone sulfatase (Homo sapiens)
Sequence (P08842 22-583): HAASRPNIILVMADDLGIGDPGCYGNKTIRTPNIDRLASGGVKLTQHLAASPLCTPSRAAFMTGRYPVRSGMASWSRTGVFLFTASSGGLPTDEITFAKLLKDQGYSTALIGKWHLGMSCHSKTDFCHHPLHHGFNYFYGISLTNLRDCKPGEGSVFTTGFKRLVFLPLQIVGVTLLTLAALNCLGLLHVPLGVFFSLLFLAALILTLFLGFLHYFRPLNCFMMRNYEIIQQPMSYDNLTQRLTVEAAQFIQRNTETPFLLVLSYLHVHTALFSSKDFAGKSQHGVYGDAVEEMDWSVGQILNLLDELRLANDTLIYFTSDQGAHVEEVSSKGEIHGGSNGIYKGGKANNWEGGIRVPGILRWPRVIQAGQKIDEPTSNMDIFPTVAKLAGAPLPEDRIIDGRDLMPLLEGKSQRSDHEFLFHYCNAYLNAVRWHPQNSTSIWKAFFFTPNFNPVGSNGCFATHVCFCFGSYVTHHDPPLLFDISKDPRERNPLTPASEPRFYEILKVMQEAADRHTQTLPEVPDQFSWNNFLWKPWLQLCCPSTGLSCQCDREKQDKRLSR
Experiment: Estrone sulfatase whole-cell assay on MCF-7 cells
Assay type: cell-based
Set-up: Whole-cell assays were performed as originally described by Duncan et al. (Cancer Res., 1993, 53: 298-303) on intact MCF-7 cell monolayers; endogenous in cells; host or cells: MCF-7 (human breast adenocarcinoma), intact monolayers
Conditions: 20 h treatment, 3H-E1S, read-out: IC50 (nM) ± S.E.M., inhibition of estrone sulfatase
Each item that follows carries a reported IC50.
Note: unit nM is implicit; provide only the numeric part.

Dear colleague, please send me the reported IC50 for CC1CCC(C2=Cc3ccc(OS(N)(=O)=O)cc3S2(=O)=O)CC1 (stereo not shown) when you can.
0.09

Dear colleague, please send me the reported IC50 for NS(=O)(=O)Oc1ccc2c(c1)S(=O)(=O)C(CC1CCCCCC1)=C2 when you can.
0.05

Dear colleague, please send me the reported IC50 for NS(=O)(=O)Oc1ccc2c(c1)S(=O)(=O)C(C1CCCCCCCCC1)=C2 when you can.
0.08

---

Each item that follows carries a reported melting point.
Note: unit °C is implicit; provide only the numeric part.

Dear colleague, please send me the reported melting point for Cc1c(OS(N)(=O)=O)ccc2cc(C3CCCCCC3)sc12 when you can.
107

Dear colleague, please send me the reported melting point for NS(=O)(=O)Oc1ccc2c(c1)S(=O)(=O)C(C1CCCCC1)=C2 when you can.
180

Dear colleague, please send me the reported melting point for NS(=O)(=O)Oc1ccc2c3c(sc2c1)CCCC3 when you can.
165

Dear colleague, please send me the reported melting point for NS(=O)(=O)Oc1ccc2c(c1)S(=O)(=O)C(CC1CCCCC1)=C2 when you can.
132

Dear colleague, please send me the reported melting point for NS(=O)(=O)Oc1ccc2cc(CC3CCCCCC3)sc2c1 when you can.
90

Dear colleague, please send me the reported melting point for NS(=O)(=O)Oc1ccc2cc(C3C4CC5CC(C4)CC3C5)sc2c1 (stereo not shown) when you can.
185

Dear colleague, please send me the reported melting point for NS(=O)(=O)Oc1ccc2c(c1)S(=O)(=O)C(CC1CCCCCC1)=C2 when you can.
135

Dear colleague, please send me the reported melting point for CC1CCC(c2cc3ccc(OS(N)(=O)=O)cc3s2)CC1 (stereo not shown) when you can.
132

Dear colleague, please send me the reported melting point for CC1(C)CCCC1C1=Cc2ccc(OS(N)(=O)=O)cc2S1(=O)=O (stereo not shown) when you can.
172

Dear colleague, please send me the reported melting point for NS(=O)(=O)Oc1ccc2cc(C3CCCCCCC3)sc2c1 when you can.
126

---

Biological target: estrone sulfatase (Homo sapiens, UniProt P08842)
Assay: Estrone sulfatase whole-cell assay on JEG-3 cells
Format: cell-based
Set-up: The JEG-3 cell line, derived from a human placental choriocarcinoma, is spontaneously very rich in human estrone sulfatase; endogenous in cells; host or cells: JEG-3 (human placental choriocarcinoma), intact cells
Conditions: 4 h treatment, 3H-E1S, read-out: IC50 (nM) ± S.E.M., inhibition of estrone sulfatase
Classify: 1 (yes) when IC50 is strictly less than 100 nM; 0 (no) when IC50 is not.

| Molecule | Class Label |
| --- | --- |
| NS(=O)(=O)Oc1ccc2cc(C3CCCC3)sc2c1 | 1 (yes) |
| CCCCCCC1=Cc2ccc(OS(N)(=O)=O)cc2S1(=O)=O | 1 (yes) |
| CC1CCCCC1c1cc2ccc(OS(N)(=O)=O)cc2s1 (stereo not drawn) | 0 (no) |
| NS(=O)(=O)Oc1ccc2cc(C3CCCCCCC3)sc2c1 | 0 (no) |
| NS(=O)(=O)Oc1ccc2cc(C3C4CC5CC(C4)CC3C5)sc2c1 (stereo not drawn) | 1 (yes) |

Bench note: check whether NS(=O)(=O)Oc1ccc2c(c1)S(=O)(=O)C(CC1CCCCCC1)=C2 shows IC50 below 100 nM
1 (yes)

Bench note: check whether CC1CCC(C2=Cc3ccc(OS(N)(=O)=O)cc3S2(=O)=O)CC1 (stereo not drawn) shows IC50 below 100 nM
1 (yes)

Bench note: check whether NS(=O)(=O)Oc1ccc2cc(C3CCCCCCCCC3)sc2c1 shows IC50 below 100 nM
0 (no)

Bench note: check whether CC1(C)CCCC1c1cc2ccc(OS(N)(=O)=O)cc2s1 (stereo not drawn) shows IC50 below 100 nM
0 (no)

Bench note: check whether Cc1c(OS(N)(=O)=O)ccc2c1S(=O)(=O)C(C1CCCCCC1)=C2 shows IC50 below 100 nM
1 (yes)

---

System: prepubescent female rats
Test: Residual estrogenic activity in vivo (uterotrophic assay)
Conditions: prepubescent female rats, oral, 1 mg/rat/day for 3 days
Entry flag: criterion met if % stimulation of uterus weight in comparison with controls reaches 3%; criterion not met if it does not.

| Compound | Tgt | Class Label |
| --- | --- | --- |
| CC1CCCCC1C1=Cc2ccc(OS(N)(=O)=O)cc2S1(=O)=O (stereo not shown) | prepubescent female rats | criterion met |

Reported % stimulation of uterus weight in comparison with controls reaches at least 3% for NS(=O)(=O)Oc1ccc2c(c1)S(=O)(=O)C(CC1CCCCC1)=C2 ?
criterion met

Reported % stimulation of uterus weight in comparison with controls reaches at least 3% for CC1(C)CCCC1C1=Cc2ccc(OS(N)(=O)=O)cc2S1(=O)=O (stereo not shown) ?
criterion met

Reported % stimulation of uterus weight in comparison with controls reaches at least 3% for NS(=O)(=O)Oc1ccc2c(c1)S(=O)(=O)C(C1CCCCC1)=C2 ?
criterion not met

Reported % stimulation of uterus weight in comparison with controls reaches at least 3% for NS(=O)(=O)Oc1ccc2c(c1)S(=O)(=O)C(C1CCCCCCCCC1)=C2 ?
criterion met

Reported % stimulation of uterus weight in comparison with controls reaches at least 3% for NS(=O)(=O)Oc1ccc2cc(C3CCCCC3)[s+]([O-])c2c1 (stereo not shown) ?
criterion not met

---

Target: UniProt P08842
Assay: Estrone sulfatase whole-cell assay on MCF-7 cells
Assay type: cell-based
Design: Whole-cell assays were performed as originally described by Duncan et al. (Cancer Res., 1993, 53: 298-303) on intact MCF-7 cell monolayers; endogenous in cells; host or cells: MCF-7 (human breast adenocarcinoma), intact monolayers
Conditions: 20 h treatment, 3H-E1S, read-out: IC50 (nM) ± S.E.M., inhibition of estrone sulfatase
Each item that follows carries a reported IC50.
Note: unit nM is implicit; provide only the numeric part.

Dear colleague, please send me the reported IC50 for C[C@]12CCC3c4ccc(OS(N)(=O)=O)cc4CCC3C1CCC2=O (stereo partly shown) [EMATE, estrone-3-sulfamate, reference compound] when you can.
0.06

Dear colleague, please send me the reported IC50 for NS(=O)(=O)Oc1ccc2c(c1)S(=O)(=O)C(C1CCCCC1)=C2 when you can.
0.24

Dear colleague, please send me the reported IC50 for NS(=O)(=O)Oc1ccc2cc(C3CCCCC3)[s+]([O-])c2c1 (stereo not shown) when you can.
0.16

Dear colleague, please send me the reported IC50 for NS(=O)(=O)Oc1ccc2c(c1)S(=O)(=O)C(CC1CCCCC1)=C2 when you can.
0.1
